# ASSAY TARGET: T1, HCoV-NL63 spike antigens (bead panel) (HCoV-NL63, UniProt Q6Q1S2 19-1296)
# T1 sequence: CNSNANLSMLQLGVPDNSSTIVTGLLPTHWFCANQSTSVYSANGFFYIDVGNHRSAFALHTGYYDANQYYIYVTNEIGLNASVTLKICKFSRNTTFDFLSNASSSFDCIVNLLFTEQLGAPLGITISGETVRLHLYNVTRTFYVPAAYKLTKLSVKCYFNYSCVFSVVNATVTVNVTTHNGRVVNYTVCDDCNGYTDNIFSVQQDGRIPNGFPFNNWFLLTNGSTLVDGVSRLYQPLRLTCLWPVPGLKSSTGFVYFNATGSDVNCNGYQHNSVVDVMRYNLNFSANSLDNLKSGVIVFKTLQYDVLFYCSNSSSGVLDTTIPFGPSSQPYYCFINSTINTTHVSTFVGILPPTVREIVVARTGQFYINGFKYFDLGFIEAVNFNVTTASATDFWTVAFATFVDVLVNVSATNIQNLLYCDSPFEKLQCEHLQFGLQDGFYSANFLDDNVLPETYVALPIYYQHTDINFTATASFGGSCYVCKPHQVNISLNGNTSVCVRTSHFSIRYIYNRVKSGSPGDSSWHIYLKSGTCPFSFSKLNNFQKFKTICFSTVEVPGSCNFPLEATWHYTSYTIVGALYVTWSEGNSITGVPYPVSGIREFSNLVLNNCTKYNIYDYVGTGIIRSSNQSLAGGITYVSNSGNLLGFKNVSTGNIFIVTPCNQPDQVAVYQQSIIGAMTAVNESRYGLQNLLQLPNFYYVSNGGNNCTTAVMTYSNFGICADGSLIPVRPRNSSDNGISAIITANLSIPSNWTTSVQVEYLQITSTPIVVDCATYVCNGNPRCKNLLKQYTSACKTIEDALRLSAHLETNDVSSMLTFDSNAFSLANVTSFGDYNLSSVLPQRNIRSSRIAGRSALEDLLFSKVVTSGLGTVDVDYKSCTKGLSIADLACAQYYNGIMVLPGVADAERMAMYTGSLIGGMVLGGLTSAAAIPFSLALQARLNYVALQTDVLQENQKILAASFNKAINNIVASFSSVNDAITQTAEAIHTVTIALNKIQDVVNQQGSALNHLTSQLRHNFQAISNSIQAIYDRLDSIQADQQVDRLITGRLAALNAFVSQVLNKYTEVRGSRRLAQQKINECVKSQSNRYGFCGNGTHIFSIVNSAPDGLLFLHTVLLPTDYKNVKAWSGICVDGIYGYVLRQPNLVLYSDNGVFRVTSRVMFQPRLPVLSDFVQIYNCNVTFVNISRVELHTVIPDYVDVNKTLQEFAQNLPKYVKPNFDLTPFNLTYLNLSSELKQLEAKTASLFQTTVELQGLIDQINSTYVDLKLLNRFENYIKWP
# ASSAY PROTOCOL: multiplex bead assay

{"BINDER": "COV_2172 (SEQ ID NO:872/877) (antibody, V domains shown) VH: EVQLVESGGGVVQPGRSLRLSCAPSGFTFSTYAMHWVRQAPGKGLEWVAVISYDGSIKYYADSVKGRFTISRDNTMNTVFLQMNSLRAEDTAVYFCAKGGERWELFTSFDYWGQGTQVTVSS VL: QSALTQPRSVSGSPGQSVTISCTGTSSDVGGYNYVSWYQQHPGKAPKLMIYDVSKRPSGVPDRFSGSKSGNTASLTISGLQAEDEADYYCCSYAGSYTFVFGGGTKLTVLG", "binding result": "no binding"}
{"BINDER": "COV_1177 (antibody, V domains shown, human IgG1) VH: QVQLVESGGGVVQPGRSLRLSCAASGFTFSSYGMHWVRQAPGKGLEWVAVIWYDGSNKYYADSVKGRFTISRDNSKNTLYLQMNSLRAEDTAVYYCARDPLGAVAGYFDYWGQGTLVTVSS VL: SYVLTQPPSVSVAPGQTARITCGGNNIGSKSVHWYQQKPGQAPVLVVYDDSDRPSGIPERFSGSNSGNTATLTISRVEAGDEADYYCQVWDSSSDHHWVFGGGTKLTVLG", "binding result": "no binding"}
